- System: FS MUC1
- Method Description: Automated fixation/staining imaging assay, FS MUC1 spot cytoplasm (Example 3)
- Type: cell-based
- Measurement Conditions: 48 hour treatment time
Readout Kind: IC50
Reply with the number, then its unit.

• CC(C)[C@@H]1[C@H]2CC[C@H](C2)[C@@]1(C)N (racemic) [Compound 256] = 6.45 µM
• CC(C)[C@H]1[C@H]2CC[C@H](C2)[C@@]1(C)N (racemic) = 8.52 µM
• C[C@]1(N)C[C@H]2CC[C@@H]1C2 (single isomer, unassigned) = 8.58 µM

Attention now turns to another entry.
Query: # lookup: IC50 of CC(C)[C@@H]1[C@H]2CC[C@H](C2)[C@@]1(C)N (single isomer, unassigned) [Compound 257]
Reply: 0.0969 µM

---

- System: MUC1-wt
- Method Description: Immunofluorescence imaging of MUC1-wt in P cells (Example 2)
- Assay type: cell-based
- Measurement Conditions: 48 hr incubation, MUC1-wt, read-out: WT EC50 (Cytoplasm)
Counter-ions that a name gives are not always drawn.
Readout Kind: EC50

- CC[C@]1(C)[C@@H]2CC[C@@H](C2)[C@@H]1N (single isomer, unassigned) [Compound 203-P2]: 2.6 µM
- CCCCC1(C)C2CCC(C2)C1N (stereo not shown) [Compound 206-P2]: > 32 µM
- CC[C@]1(C)[C@H]2CC[C@H](C2)[C@H]1N (single isomer, unassigned) [Compound 202-P1]: 4.04 µM

Query: Which EC50 value is on record for CCC1(CC)[C@H]2CC[C@H](C2)[C@H]1N [Compound 204-P1] ?
Reply: 3.32 µM

Query: Which EC50 is listed for CC1CC[C@]2(C1)[C@H]1CC[C@H](C1)[C@H]2N.Cl (mixture of isomers) [Compound 210] ?
Reply: > 32 µM

Query: What value of EC50 has been reported for the following molecule? C[C@H]1CC[C@@]2(C1)[C@H]1CC[C@H](C1)[C@H]2N.Cl [Compound 210-P1-A]
Reply: > 32 µM

Query: Item C[C@@H]1CCC[C@]2(C1)[C@H]1CC[C@H](C1)[C@H]2N.Cl [Compound 214-P1-A] has what recorded EC50?
Reply: > 32 µM

Query: Endpoint output: EC50 of CCC1(CC)[C@H]2CC[C@H](C2)[C@H]1N.Cl (racemic) [Compound 204] . Value?
Reply: 1.01 µM

Query: Endpoint output: EC50 of CC1(C)[C@@H]2CC[C@@H](C2)[C@@H]1N (single isomer, unassigned) [Compound 201-P2, hydrochloride] . Value?
Reply: 11.9 µM

Query: Quick one: EC50 of Cl.N[C@@H]1[C@@H]2CC[C@@H](C2)C12CCC2 (racemic) [Compound 208, hydrochloride] ?
Reply: > 5.6 µM

---

// reported WT ECMax (%) per item
- System: MUC1-wt
- Method Description: Immunofluorescence imaging of MUC1-wt in P cells (Example 2)
- Type: cell-based
- Measurement Conditions: 48 hr, DMSO = 0, JQ1 (250 nM) = −100% activity
Where a name gives a salt, the structure may show the parent alone.
Answer with a number only, understood to be in %.

Below are worked cases with known answers.
- CC1(C)[C@@H]2CC[C@@H](C2)[C@@H]1N (single isomer, unassigned) [Compound 201-P2, hydrochloride]: 68.51
- C[C@@H]1CC[C@]2(C1)[C@H]1CC[C@H](C1)[C@H]2N.Cl [Compound 211-P1-A]: 9.39

Query: // lookup WT ECMax (%) for CCC1(CC)[C@H]2CC[C@H](C2)[C@H]1N [Compound 204-P1]
Reply: 197.55

---

- Test system: MUC1-fs
- Method Description: Immunofluorescence imaging of MUC1-fs in P cells (Example 2)
- Assay type: cell-based
- Measurement Conditions: 48 hr incubation, MUC1-fs, read-out: EC50
Attribute: EC50
Express it in µM; write the number only.

For orientation, consider the following solved cases.
* NC1C2CCC(C2)C12CC1CCC2C1 (racemic) [Compound 238-B] | 0.029
* NC1C2CCC(C2)C12CCC(O)C2 (racemic) [Compound 249B] | 4.14
* NC1C2CCC(C2)C12CCC(O)C2 (racemic) [Compound 249C] | 6.38
* CC(C)[C@@]1(C)[C@H]2CC[C@H](C2)[C@H]1N.Cl [Compound 246-A, hydrochloride] | 1.9
* COCC1CCCC2(C1)C1CCC(C1)C2N.Cl (racemic) [Compound 225-2] | 10.1
* C[C@]1(c2ccccc2)[C@H]2CC[C@H](C2)[C@H]1N (racemic) | 13.5
* CC12CC3(CC1(C)C2)C1CCC(C1)C3N.Cl (racemic) [Compound 237, hydrochloride] | 13.3
* Cl.NC1(c2ccccc2)C2CCC(C2)C12CCCC2 (racemic) [Compound 250, hydrochloride] | 7.83

Now turn to the next molecule.
Query: Reported EC50, molecule Cl.NC1C2CCC(C2)C12CC=CC2 (racemic) [Compound 248, hydrochloride] : ____
Reply: 0.11

---

- System: MUC1-wt
- Method Description: Immunofluorescence imaging of MUC1-wt in P cells (Example 2)
- Assay type: cell-based
- Measurement Conditions: 48 hr, DMSO = 0, JQ1 (250 nM) = −100% activity
Readout Kind: WT ECMax (%)
Form entry: value (%) — number only.

Some entries whose results are on file:
- C[C@H]1CC[C@]2(C1)[C@@H]1CC[C@@H](C1)[C@@H]2N.Cl [Compound 210-P2-B]: 30.21
- C[C@H]1CC[C@@]2(C1)[C@@H]1CC[C@@H](C1)[C@@H]2N.Cl [Compound 211-P2-A]: 3.22
- CC[C@]1(C)[C@@H]2CC[C@@H](C2)[C@@H]1N (single isomer, unassigned) [Compound 203-P2]: 95
- C[C@@H]1CC[C@]2(C1)[C@@H]1CC[C@@H](C1)[C@@H]2N.Cl [Compound 210-P2-A]: −8.9
- C[C@@]1(Cc2ccccc2)[C@H]2CC[C@H](C2)[C@H]1N.Cl (racemic) [Compound 207]: 5.9

Query: May I ask what WT ECMax (%) has been recorded for CC[C@]1(C)[C@H]2CC[C@H](C2)[C@H]1N.Cl (racemic) [Compound 202-rac] ?
Reply: 125.82

Query: Would you kindly share the measured WT ECMax (%) for CC1CC[C@]2(C1)[C@H]1CC[C@H](C1)[C@H]2N.Cl (mixture of isomers) [Compound 210] ?
Reply: −10.67

Query: I would be grateful if you could share the reported WT ECMax (%) for NC1C2CCC(C2)C12CCCCC2 (stereo not shown) [Compound 212-P1] .
Reply: 110.73

Query: Entry C[C@H]1CCC[C@@]2(C1)[C@@H]1CC[C@@H](C1)[C@@H]2N.Cl [Compound 214-P2-A] has what WT ECMax (%)?
Reply: −7.57

Query: Value lookup for WT ECMax (%); key = C[C@H]1CC[C@@]2(C1)[C@H]1CC[C@H](C1)[C@H]2N.Cl [Compound 210-P1-A]
Reply: 0.73

Query: Quick one: WT ECMax (%) for C[C@@H]1CCC[C@@]2(C1)[C@@H]1CC[C@@H](C1)[C@@H]2N.Cl [Compound 214-P2-B] ?
Reply: −4.96

Query: What value of WT ECMax (%) has been recorded for this entry: CCCC1(CCC)[C@H]2CC[C@H](C2)[C@H]1N.Cl (racemic) [Compound 205]
Reply: −12.24

Query: Recorded WT ECMax (%) for C[C@@H]1CC[C@@]2(C1)[C@@H]1CC[C@@H](C1)[C@@H]2N.Cl [Compound 211-P2-B] , please?
Reply: 4.75

---

Entries and their measured EC50 follow.
- System: MUC1-fs
- Method Description: Immunofluorescence imaging of MUC1-fs in P cells (Example 2)
- Assay type: cell-based
- Measurement Conditions: 48 hr incubation, MUC1-fs, read-out: EC50
Write the value in µM as a bare number.

* Cl.NC1C2CCC(C2)C12CCOCC2 (racemic) [Compound 235, hydrochloride] | 1.77
* CC1(N)C2CCC(C2)C12CCCC2 (racemic) | 0.077

Query: # get_value(readout='EC50', item= Cl.N[C@H]1[C@@H]2CC[C@@H](C2)C12CCCCC2 [Compound 231, hydrochloride] )
Reply: 1.63

Query: Entry under review: C[C@]1(N)[C@@H]2CC[C@@H](C2)C12CCCCC2.Cl [Compound 234, hydrochloride] . Reported EC50?
Reply: 4.83

---

- Tested on: MUC1-wt
- Method Description: Immunofluorescence imaging of MUC1-wt in P cells (Example 2)
- Type: cell-based
- Measurement Conditions: 48 hr, DMSO = 0, JQ1 (250 nM) = −100% activity
Counter-ions that a name gives are not always drawn.
Readout Kind: WT ECMax (%)
Number in %, nothing else.

Consider the reported WT ECMax (%) for these molecules:
* CCC1(CC)[C@H]2CC[C@H](C2)[C@H]1N.Cl (racemic) | 190.26
* CC1(C)[C@H]2CC[C@H](C2)[C@H]1N (single isomer, unassigned) [Compound 201-P1, hydrochloride] | 63
* CC[C@@]1(C)[C@H]2CC[C@H](C2)[C@H]1N (single isomer, unassigned) [Compound 203-P1] | 91.48
* C[C@H]1CC[C@]2(C1)[C@H]1CC[C@H](C1)[C@H]2N.Cl [Compound 211-P1-B] | 9.31

Query: So what's the measured WT ECMax (%) for this one? C[C@@H]1CC[C@@]2(C1)[C@H]1CC[C@H](C1)[C@H]2N.Cl [Compound 210-P1-B]
Reply: −4.05

Query: Quick one: WT ECMax (%) of CCCCC1(C)C2CCC(C2)C1N (stereo not shown) [Compound 206-P2] ?
Reply: −3.86

Query: Form field: reported WT ECMax (%) of Cl.N[C@@H]1[C@@H]2CC[C@@H](C2)C12CCCCCC2 (racemic)
Reply: 63

Query: Can you share its WT ECMax (%)? I mean this molecule: CCC1(CC)[C@@H]2CC[C@@H](C2)[C@@H]1N [Compound 204-P2]
Reply: 65.02

Query: WT ECMax (%); subject: C[C@H]1CCC[C@]2(C1)[C@H]1CC[C@H](C1)[C@H]2N.Cl [Compound 214-P1-B]
Reply: −12.08

Query: Can you share its WT ECMax (%)? I mean this molecule: C[C@@H]1CCC[C@]2(C1)[C@H]1CC[C@H](C1)[C@H]2N.Cl [Compound 214-P1-A]
Reply: 3.96
